protocol_description: Microsomal stability in dog liver microsomes assessed as intrinsic clearance pretreated with compound upto 60 mins followed by NADPH addition and measured after 60 mins by LC/MS analysis
Format: ADME, Canis lupus familiaris, Microsome
measurement_parameters: liver microsomes, time < 120 min, read-out: CLH
experimental_endpoint: microsomal CLint (µL/min/mg)
// note: answer is a bare numeric in µL/min/mg

Example cases with answers are listed next.
O=C1O[C@@H](CO)CN1c1ccc(-c2ccc(/C=N/N3CCCCC3)nc2)c(F)c1 = 13.1
CC(=O)NC[C@H]1CN(c2ccc(N3CCOCC3)c(F)c2)C(=O)O1 = 0.667

Entry CC(C)N/N=C/c1ccc(-c2ccc(N3C[C@H](CO)OC3=O)cc2F)cn1 , microsomal CLint reported as 8.78

Entry O=C1O[C@@H](CO)CN1c1ccc(-c2ccc(/C=N/N3CCOCC3)nc2)c(F)c1 , microsomal CLint reported as 1.51

* * *

protocol_description: Stability in human plasma assessed as parent compound remaining at 25 degreeC measured upto 60 mins by HPLC analysis
Assay type: ADME, cell-free
measurement_parameters: read-out: Stability
experimental_endpoint: remaining at 1 h
Report as: number unit

Example cases with answers are listed next.
CC(C)N/N=C/c1ccc(-c2ccc(N3C[C@H](CO)OC3=O)cc2F)cn1 = 112%
CC(=O)NC[C@H]1CN(c2ccc(N3CCOCC3)c(F)c2)C(=O)O1 = 99.4%

Entry O=C1O[C@@H](CO)CN1c1ccc(-c2ccc(/C=N/N3CCOCC3)nc2)c(F)c1 , remaining at 1 h reported as 102%

* * *

protocol_description: AUC (0 to t) in Sprague-Dawley rat at 10 mg/kg, IG measured upto 24 hrs by LC-MS analysis
Type: ADME, organism-based
measurement_parameters: in vivo, po
experimental_endpoint: AUC(0-t) at 24 h (µg·h/mL)
// note: answer is a bare numeric in µg·h/mL

Example cases with answers are listed next.
CC(=O)NC[C@H]1CN(c2ccc(N3CCOCC3)c(F)c2)C(=O)O1 [LINEZOLID] = 13
CC(=O)NC[C@H]1CN(c2ccc(-c3ccc(/C=N/N4CCS(=O)(=O)CC4)nc3)c(F)c2)C(=O)O1 = 0.469
O=C1O[C@@H](CO)CN1c1ccc(-c2ccc(/C=N/N3CCCCC3)nc2)c(F)c1 = 7.17
O=C1O[C@@H](CO)CN1c1ccc(-c2ccc(/C=N/N3CCS(=O)(=O)CC3)nc2)c(F)c1 = 2.12
CC(C)N/N=C/c1ccc(-c2ccc(N3C[C@H](CO)OC3=O)cc2F)cn1 = 10.1

Lab note: next molecule to report on.
Entry O=C1O[C@@H](CO)CN1c1ccc(-c2ccc(/C=N/N3CCOCC3)nc2)c(F)c1 , AUC(0-t) at 24 h reported as 8.31

* * *

Listed molecules paired with reported half-life
protocol_description: Microsomal stability in mouse liver microsomes assessed as elimination half life pretreated with compound upto 60 mins followed by NADPH addition and measured after 60 mins by LC/MS analysis
Assay type: ADME, Microsome
measurement_parameters: liver microsomes, time < 120 min, read-out: beta t1/2
// note: answer is a bare numeric in min

Example cases with answers are listed next.
O=C1O[C@@H](CO)CN1c1ccc(-c2ccc(/C=N/N3CCCCC3)nc2)c(F)c1 = 150
O=C1O[C@@H](CO)CN1c1ccc(-c2ccc(/C=N/N3CCS(=O)(=O)CC3)nc2)c(F)c1 = 1950
O=C1O[C@@H](CO)CN1c1ccc(-c2ccc(/C=N/N3CCOCC3)nc2)c(F)c1 = 730

Lab note: next molecule to report on.
Entry CC(=O)NC[C@H]1CN(c2ccc(N3CCOCC3)c(F)c2)C(=O)O1 , half-life reported as 636

* * *

Listed molecules paired with reported bioavailability
protocol_description: Bioavailability in Sprague-Dawley rat at 10 mg/kg, IG measured upto 24 hrs by LC-MS analysis
Type: ADME, organism-based
measurement_parameters: in vivo, po
// note: answer is a bare numeric in %

Example cases with answers are listed next.
O=C1O[C@@H](CO)CN1c1ccc(-c2ccc(/C=N/N3CCCCC3)nc2)c(F)c1 = 51.1
CC(C)N/N=C/c1ccc(-c2ccc(N3C[C@H](CO)OC3=O)cc2F)cn1 = 65.8
CC(=O)NC[C@H]1CN(c2ccc(-c3ccc(/C=N/N4CCS(=O)(=O)CC4)nc3)c(F)c2)C(=O)O1 = 3.6

Entry O=C1O[C@@H](CO)CN1c1ccc(-c2ccc(/C=N/N3CCOCC3)nc2)c(F)c1 , bioavailability reported as 68.1

Entry O=C1O[C@@H](CO)CN1c1ccc(-c2ccc(/C=N/N3CCS(=O)(=O)CC3)nc2)c(F)c1 , bioavailability reported as 19.8

* * *

Listed molecules paired with reported remaining at 1 h
protocol_description: Stability in dog plasma assessed as parent compound remaining at 37 degreeC measured upto 60 mins by HPLC analysis
Assay type: ADME, cell-free, Canis lupus familiaris
measurement_parameters: read-out: Stability
// note: answer is a bare numeric in %

O=C1O[C@@H](CO)CN1c1ccc(-c2ccc(/C=N/N3CCS(=O)(=O)CC3)nc2)c(F)c1 = 107
CC(=O)NC[C@H]1CN(c2ccc(N3CCOCC3)c(F)c2)C(=O)O1 [LINEZOLID] = 110
CC(C)N/N=C/c1ccc(-c2ccc(N3C[C@H](CO)OC3=O)cc2F)cn1 = 108
O=C1O[C@@H](CO)CN1c1ccc(-c2ccc(/C=N/N3CCCCC3)nc2)c(F)c1 = 100

Lab note: next molecule to report on.
Entry O=C1O[C@@H](CO)CN1c1ccc(-c2ccc(/C=N/N3CCOCC3)nc2)c(F)c1 , remaining at 1 h reported as 115

* * *

protocol_description: Microsomal stability in rat liver microsomes assessed as intrinsic clearance pretreated with compound upto 60 mins followed by NADPH addition and measured after 60 mins by LC/MS analysis
Assay type: ADME, Microsome
measurement_parameters: time < 120 min, read-out: CLH
experimental_endpoint: microsomal CLint (µL/min/mg)
// note: answer is a bare numeric in µL/min/mg

O=C1O[C@@H](CO)CN1c1ccc(-c2ccc(/C=N/N3CCCCC3)nc2)c(F)c1 = 14.5

Entry CC(=O)NC[C@H]1CN(c2ccc(N3CCOCC3)c(F)c2)C(=O)O1 , microsomal CLint reported as 2.22

Entry O=C1O[C@@H](CO)CN1c1ccc(-c2ccc(/C=N/N3CCOCC3)nc2)c(F)c1 , microsomal CLint reported as 2.3

Entry O=C1O[C@@H](CO)CN1c1ccc(-c2ccc(/C=N/N3CCS(=O)(=O)CC3)nc2)c(F)c1 , microsomal CLint reported as 2.07

Entry CC(C)N/N=C/c1ccc(-c2ccc(N3C[C@H](CO)OC3=O)cc2F)cn1 , microsomal CLint reported as 12.6

* * *

What follows is a record of IC50 for Cytochrome P450 2C19 (Homo sapiens, UniProt P33261).

CC(=O)NC[C@H]1CN(c2ccc(N3CCOCC3)c(F)c2)C(=O)O1 = > 30 µM
O=C1O[C@@H](CO)CN1c1ccc(-c2ccc(/C=N/N3CCOCC3)nc2)c(F)c1 = > 30 µM

Lab note: next molecule to report on.
Entry O=C1O[C@@H](CO)CN1c1ccc(-c2ccc(/C=N/N3CCS(=O)(=O)CC3)nc2)c(F)c1 , IC50 reported as > 30 µM

* * *

protocol_description: Microsomal stability in mouse liver microsomes assessed as intrinsic clearance pretreated with compound upto 60 mins followed by NADPH addition and measured after 60 mins by LC/MS analysis
Assay type: ADME, Microsome
measurement_parameters: time < 120 min, read-out: CLH
experimental_endpoint: microsomal CLint (µL/min/mg)
// note: answer is a bare numeric in µL/min/mg

O=C1O[C@@H](CO)CN1c1ccc(-c2ccc(/C=N/N3CCOCC3)nc2)c(F)c1 = 2.02

Entry O=C1O[C@@H](CO)CN1c1ccc(-c2ccc(/C=N/N3CCCCC3)nc2)c(F)c1 , microsomal CLint reported as 9.37

Entry CC(C)N/N=C/c1ccc(-c2ccc(N3C[C@H](CO)OC3=O)cc2F)cn1 , microsomal CLint reported as 18.4

Entry CC(=O)NC[C@H]1CN(c2ccc(N3CCOCC3)c(F)c2)C(=O)O1 , microsomal CLint reported as 2.18
